# Nav1.1 current amplification rate (%) annotations
# tgt: human Nav1.1 (Homo sapiens, UniProt P35498)
# Construct: host or cells: HEK293
# assayMethodText: Amplification of Nav1.1-derived voltage-gated sodium current (Nav1.1 current), automated patch clamp (Test 1)
# Assay type: cell-based
# settings: Concentration for evaluation 10 μM; HEK293 cell line stably expressing human Nav1.1
Dear colleague, please return just the value in %, with no unit written.

- molecule: "N#Cc1ccc(NC(=O)Cn2nc(N3CCCC4(CCC4)C3)ccc2=O)cc1 [Example 33]"
  tgt: "human Nav1.1 (Homo sapiens, UniProt P35498)"
  Nav1.1 current amplification rate (%): 220
- molecule: "CC1CCN(c2ccc(=O)n(CC(=O)Nc3cccc(C#N)c3)n2)CC1 [Example 55]"
  tgt: "human Nav1.1 (Homo sapiens, UniProt P35498)"
  Nav1.1 current amplification rate (%): 111
- molecule: "CC1CCN(c2ccc(=O)n(CC(=O)Nc3ccn4ccnc4c3)n2)CC1 [Example 72]"
  tgt: "human Nav1.1 (Homo sapiens, UniProt P35498)"
  Nav1.1 current amplification rate (%): 119

Inquiry: Requested read-out: Nav1.1 current amplification rate (%). Entry: COc1cc(NC(=O)Cn2nc(N3CCC(C)CC3)ccc2=O)ccn1 [Example 74]
Reply text: 70
